- System: H. Influenzae
- protocolDescription: Assay for in vitro antibacterial activity, agar dilution method: H. Influenzae
- Type: cell-based
endpoint: Antibacterial Activity (MIC50) Influenzae

Worked examples follow.
CC(=O)NC[C@H]1CN(c2ccc(-c3ccc(N4CCOC4=O)nc3)c(F)c2)C(=O)O1    1.56 µg/mL
CC(=O)NC[C@H]1CN(c2ccc(-c3ccc(-n4cncn4)nc3)c(F)c2)C(=O)O1    6.25 µg/mL
CC(=O)NC[C@H]1CN(c2ccc(-c3ccc(-c4noc(C)n4)nc3)c(F)c2)C(=O)O1    3.13 µg/mL
CC(=O)NC[C@H]1CN(c2ccc(-c3ccc(-c4nnn(C)n4)nc3)c(F)c2)C(=O)O1    12.5 µg/mL
CC(=O)NC[C@H]1CN(c2ccc(-c3ccc(-c4nnnn4C)nc3)c(F)c2)C(=O)O1    3.13 µg/mL
CC(=O)NC[C@H]1CN(c2ccc(-c3ccc(-c4nnn[nH]4)nc3)c(F)c2)C(=O)O1    >25 µg/mL
CC(=O)NC[C@H]1CN(c2ccc(-c3ccc(-c4nnc(C)o4)nc3)c(F)c2)C(=O)O1    3.13 µg/mL

Could you now consider this next molecule?
Sample `CC(=O)NC[C@H]1CN(c2ccc(-c3ccc(-n4cnnn4)nc3)c(F)c2)C(=O)O1` ; Antibacterial Activity (MIC50) Influenzae observed: 12.5 µg/mL

The reported numbers originate from patent US6689779B2.
